# Tested on: Plasmodium falciparum
# protocol-details: GSK_TCMDC: Inhibition of Plasmodium falciparum 3D7 LDH activity, using an LDH reporter assay. Test compounds present at 2uM
# Format: functional, organism-based
Among all 13,000 compounds or so, fewer than 10 showed an effect of 50% or more. Not all results are given here.
observable: inhibition
Please make sure the unit comes right after the number.

Return inhibition measured with Plasmodium falciparum given this compound: COc1ccc(CNC(=O)Nc2cccc(-c3csc(NC(=N)N)n3)c2)cc1 1%

Now try CCNC1=NC2=C(CC(C(C)(C)C)CC2)C2(CCC(C(C)(C)C)CC2)S1 (centres undefined) . 4%

Now try CON=Cc1ccn(-c2ccc(O)c3c2C[C@H]2C[C@H]4[C@H](N(C)C)C(O)=C(C(N)=O)C(=O)[C@@]4(O)C(O)=C2C3=O)c1 . 0%

Now try O=C(NCCCCN1CCC(c2ccc3c(c2OCCO)CCCC3)CC1)c1ccc2oc(-c3ccc(C(F)(F)F)cc3)cc2c1 . 4%

Now try CCc1cccc2sc(N3CCN(C(=O)c4ccc([N+](=O)[O-])o4)CC3)nc12 . 0%

Now try Nc1nc(N)c2c(ccc3[nH]c(-c4ccccc4Cl)nc32)n1 . 0%

Now try Cn1cccc1C(=O)C(=O)Nc1cccc(-c2ccc(-c3nc4cc(C(F)(F)F)ccc4[nH]3)cc2)c1 . 0%

Now try CS(=O)(=O)NCCCNCc1cccc(-c2ccc(-c3nc4ccccc4[nH]3)s2)c1 . 6%

Now try O=C(NCc1ccc(F)cc1)Nc1ccc(-c2cccc(-c3nc4cc(C(F)(F)F)ccc4[nH]3)c2)cc1 . 3%

----------
# Test system: Plasmodium falciparum
# protocol-details: GSK_TCMDC: Inhibition of Plasmodium falciparum 3D7 LDH activity, using an LDH reporter assay. Test compounds present at 2uM
# Format: functional, organism-based
Out of some 13,000 compounds screened, fewer than 10 showed an effect of 50% or more. These entries were drawn from the full list.
Reported inhibition by item:
All answers are understood in %, so give the number only.

{"columns": ["compound", "inhibition [%]"],
 "data": [
  ["CCCC(=O)c1cnc2c(OCCCc3c[nH]cn3)cccc2c1Nc1c(C)cccc1C", 3],
  ["CCN1CCC(N(Cc2ccc(-c3ccc(C(F)(F)F)cc3)cc2)C(=O)Cn2c(CCc3cccc(F)c3F)cc(=O)c3c2CCCC3)CC1", 0],
  ["Cc1[nH]c(C)c(-c2ccc(OCc3cc(F)cc(F)c3)nc2)c(=O)c1Cl", 0]
]}

Consider the compound COc1ccc2nccc(N3CCC(CCNCc4cc5c(cn4)OCCO5)CC3)c2n1 and give its measured inhibition. 7

Now try CN(CCc1ccccn1)Cc1ccc(-c2ccc(-c3nc4ccccc4[nH]3)s2)cc1 . 6

Now try CC1(C)N=C(N)N=C(N)N1c1ccc(Cl)cc1 . 0

Now try COc1ccc(CN2CCCN(Cc3cccc(NC(=O)c4ccc(Cl)c(Cl)c4)c3)CC2)cc1 . 5

Now try O=C(Nc1ccsc1)Nc1cccc(-c2cccc(-c3nc4cc(F)ccc4[nH]3)c2)c1 . 2

Now try C=CCc1cccc(OC)c1OCCCON1C(=N)N=C(N)NC1(C)C . 0

Now try O=c1cc(NCCCNCc2cccc(OC(F)(F)F)c2)[nH]c2ccccc12 . 0

Now try CC(C)CNCc1cccc(-c2cccc(CN(CCCN3CCN(C)CC3)C(=O)CCC3CCCC3)c2)c1 . 0

Now try Cc1noc(C)c1-c1ccc2c(Nc3ccccc3C(C)(C)C)c(C(=O)NCc3ccccc3)cnc2c1 . 0

Now try CCCCCCN1CCC(NCc2ccc(Cl)cc2)CC1 . 0

Now try Cc1cc2ccccc2n1CC(=O)N1CC(C(=O)N2CCCCC2)Oc2ccccc21 (stereo not given) . 2

Now try NC(=O)c1cccc(C(=O)Nc2cccc(-c3cccc(-c4nc5cc(F)ccc5[nH]4)c3)c2)c1 . 1

Now try COc1cccc(CCN(Cc2ccccc2-c2ccc(CNC3CC(C)(C)NC(C)(C)C3)cc2)C(=O)NC2CCCCC2)c1 . 0

Now try CC(=NNc1nc2ccccc2s1)c1ccccn1 . 0

Now try COC(=O)c1cccc(CNCc2cccc(-c3ccc(-c4nc5cccc(C)c5[nH]4)s3)c2)c1 . 1
